Examples of binders with documented SPOT peptide array binding signal intensity follow.
- assayed target: SpAbp1-D1
- experiment notes: SPOT peptide array binding signal intensity (averaged, normalized) (arbitrary units (background-subtracted, floor 0; scale differs between SH3 domains)); higher = stronger binding of the SH3 domain to the peptide
endpoint name: SPOT peptide array binding signal intensity

ALKQKKIPPPFKPHL    20.5
SGVRLPAPPPPPRRG    2280
DKSRPPRPPPKPLHL    1120
KRKRFNLLLPKPYLT    146
